measurement-target: α-D-galactosidase (green coffee beans) (Coffea arabica)
Construct: purchased Sigma Aldrich Chemicals Limited
Sequence (Q42656 16-378): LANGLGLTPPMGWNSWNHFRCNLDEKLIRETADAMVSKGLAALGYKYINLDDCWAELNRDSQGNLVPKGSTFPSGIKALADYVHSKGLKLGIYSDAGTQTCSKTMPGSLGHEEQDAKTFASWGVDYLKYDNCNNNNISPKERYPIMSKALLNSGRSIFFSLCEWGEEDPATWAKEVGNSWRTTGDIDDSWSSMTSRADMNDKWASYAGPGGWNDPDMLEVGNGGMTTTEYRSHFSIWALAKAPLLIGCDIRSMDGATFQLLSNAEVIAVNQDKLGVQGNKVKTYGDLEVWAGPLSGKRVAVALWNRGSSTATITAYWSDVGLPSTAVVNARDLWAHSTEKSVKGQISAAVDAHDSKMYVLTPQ
assay-remarks: glycosidase assay with p-nitrophenyl substrates (Example 2)
Format: biochemical
condition-summary: 10 μl of 5 mM iminosugar solution in 70 μl incubation mixture; 20° C.; read-out: Promotion of glycosidase activity: α-D-galactosidase (Green coffee bean)
endpoint-label: activation at 714 µM (%)
// units = %; emit number, no label

Prompt: Short answer please: activation at 714 µM, α-D-galactosidase (green coffee beans) (Coffea arabica), entry CCCCCCCCCN1C[C@H](NC(C)=O)[C@@H](O)[C@@H]1CO
Completion: 35

Prompt: Now consider CCCCCCCCCN1C[C@H](O)[C@H](O)[C@@H]1[C@H](O)[C@H](O)CO and answer again.
Completion: 42

Prompt: N[C@@H]1CN(Cc2ccccc2)[C@H](CO)[C@H]1O ?
Completion: 43

Prompt: Same lookup for N[C@H]1CN(Cc2ccccc2)[C@@H](CO)[C@@H]1O , please.
Completion: 30

Prompt: Same question, CC1(C)O[C@H]2[C@H](O)[C@@H](CO[Si](C)(C)C(C)(C)C)NC(=O)[C@H]2O1 this time
Completion: 30

Prompt: And for CCCCCCCCCN1C[C@@H](O)[C@@H](O)[C@@H]1[C@@H](O)CO ?
Completion: 42

Prompt: # repeat for CCCC[N+]1([O-])C[C@@H](O)[C@H](O)[C@H]1CO (stereo partly drawn)
Completion: 35

Prompt: Please do the same for O=C1N[C@H]([C@H](O)CO)[C@H](OCc2ccccc2)[C@@H]1OCc1ccccc1 as well.
Completion: 38

Prompt: Can you handle CCCCN1C[C@@H](NC(C)=O)C[C@H]1CO next?
Completion: 38
